Every entry's value here was drawn from ChEMBL document CHEMBL2169776.

# assay.remarks: Therapeutic index, ratio of HC10 for human erythrocyte cells to MIC for multidrug resistant bacterial strains
# recorded.conditions: read-out: TI
Square brackets hold non-standard residues; d marks the D form. Peptide text beside a SMILES is read from it. Nlys = NCCCCNCC(=O)O
Please respond with reported selectivity ratio for every item in the list.

Examples with their reported selectivity ratio follow.
CC(=O)N[C@@H](CCCCN)C(=O)N(CCC(=O)N[C@@H](CCCCN)C(=O)N(CCC(=O)N[C@@H](CCCCN)C(=O)N(CCC(=O)N[C@@H](CCCCN)C(=O)N(CCC(=O)N[C@@H](CCCCN)C(=O)N(CCC(=O)N[C@@H](CCCCN)C(=O)N(CCC(=O)N[C@@H](CCCCN)C(=O)N(CCC(=O)N[C@@H](CCCCN)C(=O)N(CCC(N)=O)Cc1ccccc1)Cc1ccccc1)Cc1ccccc1)Cc1ccccc1)Cc1ccccc1)Cc1ccccc1)Cc1ccccc1)Cc1ccccc1 ... > 21
CC(=O)N(CCCCN)CCC(=O)N[C@@H](Cc1ccccc1)C(=O)N(CCCCN)CCC(=O)N[C@@H](Cc1ccccc1)C(=O)N(CCCCN)CCC(=O)N[C@@H](Cc1ccccc1)C(=O)N(CCCCN)CCC(=O)N[C@@H](Cc1ccccc1)C(=O)N(CCCCN)CCC(=O)N[C@@H](Cc1ccccc1)C(=O)N(CCCCN)CCC(=O)N[C@@H](Cc1ccccc1)C(=O)N(CCCCN)CCC(=O)N[C@@H](Cc1ccccc1)C(=O)N(CCCCN)CCC(=O)N[C@@H](Cc1ccccc1)C(N)=O ... > 11
CC(=O)N(CCCCN)CC(=O)N[C@@H](Cc1ccccc1)C(=O)N(CCCCN)CC(=O)N[C@@H](Cc1ccccc1)C(=O)N(CCCCN)CC(=O)N[C@@H](Cc1ccccc1)C(=O)N(CCCCN)CC(=O)N[C@@H](Cc1ccccc1)C(=O)N(CCCCN)CC(=O)N[C@@H](Cc1ccccc1)C(=O)N(CCCCN)CC(=O)N[C@@H](Cc1ccccc1)C(=O)N(CCCCN)CC(=O)N[C@@H](Cc1ccccc1)C(=O)N(CCCCN)CC(=O)N[C@@H](Cc1ccccc1)C(N)=O (Ac-[Nlys]F[Nlys]F[Nlys]F[Nlys]F[Nlys]F[Nlys]F[Nlys]F[Nlys]F-NH2) ... > 5
CC(=O)N[C@H](CCCCN)C(=O)N[C@H](Cc1ccccc1)C(=O)N[C@H](CCCCN)C(=O)N[C@H](Cc1ccccc1)C(=O)N[C@H](CCCCN)C(=O)N[C@H](Cc1ccccc1)C(=O)N[C@H](CCCCN)C(=O)N[C@H](Cc1ccccc1)C(=O)N[C@H](CCCCN)C(=O)N[C@H](Cc1ccccc1)C(=O)N[C@H](CCCCN)C(=O)N[C@H](Cc1ccccc1)C(=O)N[C@H](CCCCN)C(=O)N[C@H](Cc1ccccc1)C(=O)N[C@H](CCCCN)C(=O)N[C@H](Cc1ccccc1)C(N)=O ... < 0.008

Consider the additional molecule presented here.
Looking up CC(=O)N(CCCCN)CCC(=O)N(CCC(=O)N(CCCCN)CCC(=O)N(CCC(=O)N(CCCCN)CCC(=O)N(CCC(=O)N(CCCCN)CCC(=O)N(CCC(=O)N(CCCCN)CCC(=O)N(CCC(=O)N(CCCCN)CCC(=O)N(CCC(=O)N(CCCCN)CCC(=O)N(CCC(=O)N(CCCCN)CCC(=O)N(CCC(N)=O)Cc1ccccc1)Cc1ccccc1)Cc1ccccc1)Cc1ccccc1)Cc1ccccc1)Cc1ccccc1)Cc1ccccc1)Cc1ccccc1 , I see its selectivity ratio listed as > 10
